Hey, just so you know, these numbers are from the nanobody polyreactivity screen of Harvey et al. (2022).

- procedure.summary: yeast display, Sf9 membrane polyspecificity reagent, FACS + sequencing; frameworks hold sequencing errors
metric: polyreactivity (PSR sort gate)

QVQLVESGGGLVQAGGSLRLSCAASGSTFAANAMGWYRQAPGKERELVAVIRRGGSTTYADSVKGRFTISRDNAKNTVYLLMNSLKPEDTAVYYCNARVTLGRPLFTYLVRYEYWGQGTQVTVSS :: high polyreactivity
QVQLVESGGGLVQAGGSLRLSCAASGRTFYYNAMGWYRQAPGKEREFVAGISYGGTTTYYADSVKGRFTISRDNAKNTVYLQMNSLKPEDTAVYYCAAGYTWRQSWYPFDYWGQGTQVTVSS :: high polyreactivity

* * *

- procedure.summary: yeast display, Sf9 membrane polyspecificity reagent, FACS + sequencing; frameworks hold sequencing errors
metric: polyreactivity (PSR sort gate)

Below are worked cases with known answers.
QVQLVESGGGLVQAGGSLRLSCAASGRIFWYYAMGWYRQAPGKEWELVATITYSGVRTYYADSVKGRFTISRDNAKNTVYLQMNSLKPEDTAVYYCAAVPGASVYGYYWKFGYWGQGTQVTVSS :: high polyreactivity
QVQLVESGGGLVQAGGSLRLSCAASGSTFFSNTMGWYRQAPGKERELVAAITDSGTSTYYADSVKGRFTISRDNAKNTVYLQMNSLKPEDTAVYYCAAYPSGWYDYWGQGTLVTVSS :: low polyreactivity
QVQLVESGVGLVQAGGSLRFSCAASAMGWSRQAPGKERELVAVINSTGGSTYYADSVKGRFTISRDNAKNTVYLQMNSLKPDATAVYYCARVTRRGPGYTTLYSRYDYWGQGTQVSVSS :: low polyreactivity
QVQLVESVGGLVQAGGRLRLSCAASGSTFPRYTRGWYRQAPGKERELVAAISSRGGSTIYADSVKGRFTNSRDNAMNTVYLEMNSLKPEDSAVYYCAARRASRDGYWGQGTQVTVSS :: high polyreactivity
QVQLVESGGGLVQAGGSLRLSCAASGSTFHNYAMGWYRQAPGKERELVAGISVRGGGTYYADSVKGRFTISRDNAKNNVYLQMNSLKPEDTAVYYCAKRSRYYYRYDYWGQGSQVTVSS :: high polyreactivity
QVQLVESGGGLVQAGGSLRLSCAASGRTFPSYTMGWYSQAPGKERELVAAITWTGGSTYYADSVKGRFTISRDNAKNTVYLQMNSLKPEDTAVYYCADYDYWGQGTQVTVSS :: low polyreactivity
QVQLVESGGGLVQAGGSLRLSCAASGRTFTVYAMGWYRQAPGKEREFVAAITERGGSTYYADSVKGRFTISRDNAKNTVYLQMNSLKPEDTAVYYCAAVYYWRPGWYVRFDYWGHGTQVTVSS :: low polyreactivity
QVQLVESGGGLVQAGGSLRLSCAASGRIFYRYAMGWYRQAPGKERELVAVISGGGTYYADSVKGRFTISRDNAKNTVYLQMNSLKPEDTAVYYCAADDGVSLVSPYYGGYDYWGQGTQVTVSS :: low polyreactivity
QVHLVESGGGLVQAGGSLRLSCASSGYIIKYNAMGWYRPAPGKERELVAAISSIGGRTYYADSVKGRFTISRDNAKNTVYLQMNRLKPEDTAVYYCNAVGGRYTGWRYDDWGQGTQVTVSS :: high polyreactivity
QVQLVESGGGLVQAGGSLRLSCAASGSIFWGYAMGWYRQAPGKERELVAAITRGDTTNYADSVKGRFTISRDNAKNTVYLQMNSLKPEDTAVYYCAATPDPPHTYEYWGQGTQVTVSS :: low polyreactivity

Which polyreactivity (PSR sort gate) reading was recorded for the sequence QVQLVESGGGLVQAGGSLRLSCAASGRTFRYNAMGWYRQATGKVRELVAAISGRGSSTYYADSVKGRFTISRDNAKNTVYLQMNSLKPDDTAVYYCAALPASVRRPGWHDYWGQGTQVTVSS ?
high polyreactivity
